Tested on: RPMI-8226 leukemia
protocol_notes: NCI-60 one-dose screen, 48 h
particulars: 10 µM unless noted
This is part of a sample that, as a whole, favours compounds with a hit. Of some 83,000 tested, about 20% had one in any assay. Active and inactive are the calls of the source. How the source made its calls: active means growth percent below 10; inactive means the rest.
Mark one answer only. Choices: active, inactive

CSc1nc(NCCO)c(C#N)c(-c2cccc(N)c2)n1 ... inactive
CC[C@H](Nc1ncnc(N)c1C(N)=O)c1nc2cccc(NCc3ccc(C(=O)NO)cc3)c2c(=O)n1-c1ccccc1 ... inactive
Cc1cccc(NC(=O)c2sc3nc4c(cc3c2N)C(=O)CCC4)c1 ... inactive

Status in this test for Cc1ccc(S(=O)(=O)N(CCc2ccc(Cl)cc2)S(=O)(=O)c2ccc(C)cc2)cc1 ?
inactive

Status in this test for CC(C)(C)c1nn(-c2ccccc2)c2c1CC1(CN2Cc2ccc3c(c2)OCO3)C(=O)c2ccccc2C1=O ?
inactive

Status in this test for NC(=S)N/N=C/c1cc(-c2cccc(N)c2)ccn1 ?
inactive

Status in this test for COc1ccc(/C=C/C(=O)c2c(O)c(C)c(O)c3c2OC2=CC(O)=C(C(C)=O)C(=O)[C@]23C)cc1 ?
active

Status in this test for COc1cc(-c2cnc3nonc3n2)c(OC)c2c1OCO2 ?
inactive

Status in this test for CCCCCCCCCC(=O)Oc1ccc(/C(=C(/C)c2ccccc2)c2ccc(OCCN3CCCC3)cc2)cc1 ?
active

Status in this test for CCOC(=S)SCc1ccc(Cl)cc1 ?
inactive

----------
Tested on: SK-MEL-28 melanoma
protocol_notes: NCI-60 one-dose screen, 48 h (100 = growth as untreated, 0 = no growth, -100 = all killed)
particulars: 10 µM unless noted
This is part of a sample that, as a whole, favours compounds with a hit. Of some 83,000 tested, about 20% had one in any assay.
Outcome: met for growth of at least 80%; not met for anything lower.

Nc1c(C(=O)Nc2ccccc2)sc2nc3c(cc12)CN(CCc1ccccc1)CC3 ... met
COc1ccc(C(=O)c2sc3nc4c(c(C(F)(F)F)c3c2N)CN(C(C)=O)CC4)cc1OC ... met
CCCCCCCCCCCCCC(=O)C(C)N (stereo not drawn) ... not met
CC[C@]12C=CCN3CC[C@@]4(c5ccc(OC)cc5N(C)[C@H]4[C@@](O)(C(=O)OC)[C@@H]1OC(=O)CCC(=O)N[C@@H](Cc1c[nH]c4ccccc14)C(=O)OC)[C@@H]32 ... not met
NCc1cn2cc(Cl)sc2n1 ... met

Could you tell me if the measured growth of CC[C@H](Nc1cc(C)nc(N)n1)c1nc2cccc(NCc3ccc(C(=O)NO)cc3)c2c(=O)n1-c1ccccc1 reaches 80% or more?
not met

----------
Test system: HS 578T breast
protocol_notes: NCI-60 one-dose screen, 48 h (100 = growth as untreated, 0 = no growth, -100 = all killed)
particulars: 10 µM unless noted
About 83,000 compounds went through this panel and 20% of them were active in at least one assay; those are over-represented in the sample as a whole.
measure_name: growth (%)
Write the number in % without appending the unit.

Worked examples, 3 compounds total:
c1c2c(cc3c1OCO3)Cc1cc3c(cc1Cc1cc4c(cc1C2)OCO4)OCO3 ... 104
COc1ccc2[nH]c(=O)c(/C=C/C(=O)c3ccc(Nc4nccc(-c5ccc6ccccc6c5)n4)cc3)cc2c1 ... 98.8
Cc1cc(=O)oc2cc(Oc3nc(-c4cccs4)cn4c(-c5cccs5)cnc34)ccc12 ... 67.6

Consider the additional compound presented here.
Reported growth for O=C1C[C@H](Sc2nc(-c3ccc(F)cc3)cc(C(F)(F)F)n2)[C@H]2CO[C@@H]1O2 : what is it?
109
